- assayed target: T1, hECD: full-length extracellular region of human MuSK (E22 to T495) with C-terminal Avi- and His6-tags (human, UniProt O15146 22-495, biotinylated in vitro using the BirA enzyme)
- T1 construct: also called human ECD; not shown: Avi- and His6-tags
- T1 sequence: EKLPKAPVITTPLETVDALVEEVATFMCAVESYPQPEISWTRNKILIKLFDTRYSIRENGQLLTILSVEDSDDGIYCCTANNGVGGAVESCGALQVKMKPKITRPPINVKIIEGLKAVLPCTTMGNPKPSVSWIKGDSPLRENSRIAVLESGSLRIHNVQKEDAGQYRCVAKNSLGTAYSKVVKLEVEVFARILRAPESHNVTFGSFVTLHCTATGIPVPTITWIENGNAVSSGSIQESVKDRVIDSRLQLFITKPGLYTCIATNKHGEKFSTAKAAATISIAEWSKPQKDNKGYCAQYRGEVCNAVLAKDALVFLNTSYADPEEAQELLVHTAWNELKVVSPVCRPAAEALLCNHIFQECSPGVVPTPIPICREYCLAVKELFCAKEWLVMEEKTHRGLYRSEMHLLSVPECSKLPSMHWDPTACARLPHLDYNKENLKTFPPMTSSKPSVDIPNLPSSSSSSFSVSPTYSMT
- assay info: bead-binding assay, Fab format: biotinylated antigen on streptavidin beads, flow cytometry, 1:1 fit; average ± s.d., n=3
measurement name: Kd (nM)

>>> measured_value("X17 Fab (Fab, V domains shown, Fab format) VH: EVQLVESGGGLVQPGGSLRLSCAASGFTISYSSIHWVRQAPGKGLEWVASIYSSSGSTYYADSVKGRFTISADTSKNTAYLQMNSLRAEDTAVYYCARGDHGYYVFGYLGMDYWGQGTLVTVSS VL: DIQMTQSPSSLSASVGDRVTITCRASQSVSSAVAWYQQKPGKAPKLLIYSASSLYSGVPSRFSGSRSGTDFTLTISSLQPEDFATYYCQQSYKPGALITFGQGTKVEIK")
0.52
